Origin of values: PubChem BioAssay AID2060504

Can you tell me viability, T/C for the items I'm about to list?
- System: 636577-100-R-J1-PDC complex spheroid viability;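 also: luminescence signal used as a proxy for viable cells; viability read after seven days of drug exposure; 100% = DMSO vehicle control wells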
- test_method_notes: Anticancer human tumor 636577-100-R-J1-PDC patient-derived endometrial adenocarcinoma cell line growth inhibition [GQUAD]
- assay_conditions: second compound 1 µM; first compound 0.1 µM; active compounds read low
Answers are plain numbers, in %.

Below, 3 molecules whose answers are already recorded.
CC1COCCN1c1cc(C2(O)CC3CCC(C2)O3)c2cnn(-c3ccn[nH]3)c2n1 (stereo not given) + Cc1[nH]c2ccc(F)cc2c1-c1nc2c3cccnc3c3ncccc3c2[nH]1; 26
Cc1cccc(N(C)C(=O)C2C(O)CCN2c2nc(C)cc(C(F)(F)F)c2C#N)c1 (stereo not given) + Cc1cnc(CNC(=O)c2c(=O)c3ccc(N4CCCN(C)CC4)nc3n3c2sc2ccccc23)cn1; 19.7
COc1cccc2c1C(=O)c1c(O)c3c(c(O)c1C2=O)CC(O)(C(=O)CO)CC3OC1CC(N)C(O)C(C)O1 (stereo not given) + CN(C)c1ccc(Nc2c3ccc(NC(=O)CCN4CCCC4)cc3nc3cc(NC(=O)CCN4CCCC4)ccc23)cc1; 18.6

# return viability, T/C for each item in the list
1. C#Cc1c(F)ccc2cc(O)cc(-c3ncc4c(N5CC6CCC(C5)N6)nc(OCC56CCCN5CC(F)C6)nc4c3F)c12 (stereo not given) + CN(C)c1ccc(Nc2c3ccc(NC(=O)CCN4CCCC4)cc3nc3cc(NC(=O)CCN4CCCC4)ccc23)cc1
2. CCCS(=O)(=O)Nc1ccc(F)c(C(=O)c2c[nH]c3ncc(-c4ccc(Cl)cc4)cc23)c1F + Cc1[nH]c2ccc(F)cc2c1-c1nc2c3cccnc3c3ncccc3c2[nH]1

A)
1. 75.2
2. 83.1
